Hello, the source for this data is paper PMC13338763, in case you need it.

experiment.description: Aqueous solubility
Type: physicochemical
assay.context: water
Listed next: entries and their corresponding solubility.

compound	solubility [µg/mL]
Cc1cc(-c2ccc(NCC(=O)Oc3c4n(cc(C(=O)NCc5ccc(F)cc5F)c3=O)C[C@@H]3OCC[C@@H](C)N3C4=O)c(C)c2)ccc1/N=N/c1ccc2c(S(=O)(=O)O)cc(S(=O)(=O)O)c(N)c2c1O [hEB-DTG]	9640
C[C@@H]1CCO[C@H]2Cn3cc(C(=O)NCc4ccc(F)cc4F)c(=O)c(O)c3C(=O)N12 [DTG, dolutegravir]	40

---

experiment.description: PK study: DTG in serum by HPLC-MS
Assay type: in vivo, mice
assay.context: mouse, serum, iv; single i.v. injection of free DTG 5 mg/kg, one-compartment model; read-out: CL, free DTG in serum (converted)

molecule	clearance (mL/min)
C[C@@H]1CCO[C@H]2Cn3cc(C(=O)NCc4ccc(F)cc4F)c(=O)c(O)c3C(=O)N12 [DTG, dolutegravir]	0.00411
